Would you kindly list protein stability index for each of these variants?
B1: MYBL2 (parent)
chain: FSPSQFLNFWNKQDTLELESPSLT

variants of: B1; assay: protein stability index of a GFP-peptide fusion (GPS, HEK-293T) (PSI 1-6); higher = more stable; settings: c terminus: a fixed tail appended;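 further: lentivirally expressed fusions sorted by FACS into six bins by GFP to DsRed ratio, PSI derived from sequencing read proportions per bin multiplied by bin number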
One number for each entry.

K12I	3.21
N8M	3.6
P21M	3.16
F1V	3.72
L7V	3.57

Would you mind giving protein stability index for every variant in the list below?
1. F9R
2. T24C
3. Q13W

output:
1: 2.13; 2: 3.38; 3: 3.25

Dear colleague, could you send me protein stability index for each of the items below? Thanks.
1. F1H
2. F1R
3. F6S

output:
2.13
3.06
2.31

Items follow; give protein stability index for each.
1. E17S
2. P3G
3. S22T
4. L23D
5. F1A
6. E17D
7. L23N
8. T15R

output:
3.58
2.41
2.82
3.49
3.77
3.02
2.65
2.54

Take each entry in turn and give its protein stability index.
1. K12Y
2. S22N
3. S20T
4. W10C

output:
1. 3.78
2. 3.17
3. 2.83
4. 2.5

Quick request: protein stability index for each listed item, please.
1. K12E
2. L16P

output:
2.25
2.29

Go through the items and report each one's protein stability index.
1. F9V
2. L18G
3. S2D
4. P21E
5. F1E
6. F1M
7. Q5R
8. K12P

output:
1. 3.09
2. 2.58
3. 1.92
4. 2.64
5. 4.58
6. 3.3
7. 2.6
8. 3.55

Below are 6 variants. Give each one its protein stability index.
1. S4K
2. P3I
3. S4G
4. L16Y
5. N8K
6. Q13D

output:
[2.53, 3.19, 4.19, 3.49, 2.74, 3.51]

Can you give me protein stability index for all of these, one by one?
1. L23E
2. L18R
3. F6T
4. S4E
5. S4V

output:
[2.26, 2.95, 1.5, 2, 2.57]

Please look at the items below and tell me protein stability index for each one, in order.
1. P3W
2. S4M

output:
1: 2.18; 2: 3.27
